Target: MERTK (UniProt Q12866)
Sequence (Q12866 whole entry, looked up): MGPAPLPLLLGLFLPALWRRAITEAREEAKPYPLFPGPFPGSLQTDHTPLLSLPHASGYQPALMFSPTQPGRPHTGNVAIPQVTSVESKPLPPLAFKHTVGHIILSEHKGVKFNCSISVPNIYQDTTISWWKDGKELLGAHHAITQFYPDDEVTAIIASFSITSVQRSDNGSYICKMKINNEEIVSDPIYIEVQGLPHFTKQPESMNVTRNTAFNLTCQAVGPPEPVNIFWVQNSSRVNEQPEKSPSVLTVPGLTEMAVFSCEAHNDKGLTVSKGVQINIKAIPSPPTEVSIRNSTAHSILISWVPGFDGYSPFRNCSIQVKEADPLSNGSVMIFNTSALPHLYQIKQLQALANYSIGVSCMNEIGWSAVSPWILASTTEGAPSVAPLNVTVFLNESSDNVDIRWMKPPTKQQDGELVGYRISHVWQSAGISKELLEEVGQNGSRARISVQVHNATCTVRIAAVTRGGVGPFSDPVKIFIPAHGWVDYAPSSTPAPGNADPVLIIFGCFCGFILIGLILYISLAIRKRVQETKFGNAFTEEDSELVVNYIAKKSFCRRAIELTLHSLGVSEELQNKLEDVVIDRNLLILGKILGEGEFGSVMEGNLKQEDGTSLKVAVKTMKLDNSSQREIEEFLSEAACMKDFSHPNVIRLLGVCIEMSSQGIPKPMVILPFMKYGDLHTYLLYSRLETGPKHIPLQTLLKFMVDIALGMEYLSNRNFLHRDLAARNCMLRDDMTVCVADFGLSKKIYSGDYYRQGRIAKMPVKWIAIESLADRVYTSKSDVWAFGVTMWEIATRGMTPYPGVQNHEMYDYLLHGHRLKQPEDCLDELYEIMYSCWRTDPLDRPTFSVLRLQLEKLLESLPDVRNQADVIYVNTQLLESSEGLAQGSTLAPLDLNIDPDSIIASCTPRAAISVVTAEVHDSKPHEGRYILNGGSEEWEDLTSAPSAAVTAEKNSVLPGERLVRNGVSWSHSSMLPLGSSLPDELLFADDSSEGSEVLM
Assay: phosphorylation enrichment, bacterial display (enrichment ratio); higher = better substrate or ligand; peptides without Tyr show the background;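 further: 11-residue human phosphosite peptides and single-mutation variants displayed on the E. coli surface, counted by deep sequencing, each peptide's frequency after selection divided by its frequency in the unselected input library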;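 further: frequency after pTyr selection over input frequency; kinase dosed for 20-30% of maximal phosphorylation in three min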
Readout: phosphorylation enrichment
Output: the number by itself.

Endpoint output: phosphorylation enrichment of LGSWTYTKTVS [ROS1_Y144] . Value?
0.519

Record: DDHFTYSRFPW [LY75_Y888_YF]
3.18

Query LVIIKYLPEWT [PSEN1_Y240_F237I] next
1.03

Proceed to KMGNIYRTEFG [MRPL3_Y265_YF]
0.477

Request: CNTIHYNFMCN [TP53_Y234_T230N_YF]
0.357

Same thing, different sequence: NSVLVYRNGDP [DCDC2_Y22_K17N]
0.454

Okay, and SMGHRYIEVFK [HNRNPF_Y82] ?
0.361
